As shown below, each of these compounds has a reported pIC50 value.
Target: CD45 (Homo sapiens, UniProt P08575)
Construct: incubating the cytosolic portion of CD45 with the compounds and p-nitrophenyl phosphate (pNPP); purchased BIOMOL (Plymouth Meeting, Pa.)
Sequence (P08575 599-1306 limits assumed): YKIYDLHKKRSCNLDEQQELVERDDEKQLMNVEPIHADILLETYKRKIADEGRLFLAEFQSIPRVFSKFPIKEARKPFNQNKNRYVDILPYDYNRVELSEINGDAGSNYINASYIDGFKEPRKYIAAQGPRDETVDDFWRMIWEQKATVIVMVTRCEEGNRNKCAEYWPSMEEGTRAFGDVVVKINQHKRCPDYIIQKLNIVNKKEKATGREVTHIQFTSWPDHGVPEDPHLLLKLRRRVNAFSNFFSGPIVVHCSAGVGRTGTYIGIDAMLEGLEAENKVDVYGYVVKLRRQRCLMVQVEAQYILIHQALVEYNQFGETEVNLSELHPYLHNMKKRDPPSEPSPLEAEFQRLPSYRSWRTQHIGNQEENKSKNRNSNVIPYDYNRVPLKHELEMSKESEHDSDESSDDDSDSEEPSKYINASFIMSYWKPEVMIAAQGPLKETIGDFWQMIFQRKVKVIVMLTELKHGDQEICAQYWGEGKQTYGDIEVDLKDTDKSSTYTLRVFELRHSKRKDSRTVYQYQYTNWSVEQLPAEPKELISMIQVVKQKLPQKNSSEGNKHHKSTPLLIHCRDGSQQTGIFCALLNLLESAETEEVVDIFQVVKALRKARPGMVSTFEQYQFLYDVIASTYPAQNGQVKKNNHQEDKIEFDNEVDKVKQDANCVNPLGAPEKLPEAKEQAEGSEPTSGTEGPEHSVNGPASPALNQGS
Test: Phosphatase assay using pNPP as substrate
Format: biochemical
Settings: CD45 phosphatase, pNPP substrate, pH 7.0; read-out: pNPP IC50
pIC50: −log10 of the molar value.

{"SUBSTANCE_SMILES": "O=C(Nc1ccc2c(c1)-c1ccccc1C(=O)C2=O)c1ccccc1F", "COMPARATIVE_SIGN": "=", "pIC50": 5.89}
{"SUBSTANCE_SMILES": "COC(=O)CCCCCCCCC(=O)Nc1ccc2c(c1)C(=O)C(=O)c1ccccc1-2", "COMPARATIVE_SIGN": "<", "pIC50": 4.52}
{"SUBSTANCE_SMILES": "O=C(O)CNC(=O)c1ccc2c(c1)C(=O)C(=O)c1ccccc1-2", "COMPARATIVE_SIGN": "=", "pIC50": 6.10}
{"SUBSTANCE_SMILES": "O=C1C(=O)c2cccc([N+](=O)[O-])c2-c2ccccc21", "COMPARATIVE_SIGN": "=", "pIC50": 6.30}
{"SUBSTANCE_SMILES": "O=C(O)c1ccc2c(c1)C(=O)C(=O)c1ccccc1-2", "COMPARATIVE_SIGN": "=", "pIC50": 6.00}
{"SUBSTANCE_SMILES": "COC(=O)CCC(=O)Nc1ccc2c(c1)C(=O)C(=O)c1cccc(NC(=O)CCC(=O)OC)c1-2", "COMPARATIVE_SIGN": "=", "pIC50": 6.30}
{"SUBSTANCE_SMILES": "COC(=O)CCC(=O)Nc1cccc2c1C(=O)C(=O)c1ccccc1-2", "COMPARATIVE_SIGN": "=", "pIC50": 6.40}
{"SUBSTANCE_SMILES": "O=C1C(=O)c2cc(Br)ccc2-c2ccccc21", "COMPARATIVE_SIGN": "=", "pIC50": 6.43}
